test system: tubulin; experiment: Inhibition of [3H]colchicine binding to tubulin (DEAE-cellulose filter method); design: species or system bovine; conditions: inhibitor 5.0 μM, 5.0 μM [3H]colchicine, 1.0 μM tubulin
Threshold check on Inhibition of Colchicine Binding % Inhibition ± SD: at or above 70% gives Condition met, strictly below gives Condition not met.

C=CC[C@@H](CC/C(C)=C/C=C/CC/C=C\[C@@H]1CSC([C@@H]2C[C@@H]2C)=N1)OCOC | Condition met
C=CC[C@H](O)CC/C(C)=C/C=C/CC/C=C\[C@@H]1CSC([C@@H]2C[C@@H]2C)=N1 [C13 Hydroxyl] | Condition met
C=CC[C@@H](CC/C(C)=C/C=C/CC/C=C\c1csc([C@@H]2C[C@@H]2C)n1)OC [Curazole, [13R,19R,21S]-1,2-didehydrocuracin A] | Condition met
C=CC[C@@H](CC/C(C)=C/C=C/CC/C=C\[C@@H]1CSC([C@H]2C[C@@H]2C)=N1)OCOC [C13 Methyl-methoxy, Epi C19] | Condition not met
C=CCCc1nc(/C=C\CC/C=C/C=C(\C)CC[C@H](CC=C)OC)cs1 | Condition met

**Q:** Check if Inhibition of Colchicine Binding % Inhibition ± SD >= 70% (inclusive). Item: C=CC[C@@H](CC/C=C/C=C/CC/C=C\[C@@H]1CSC([C@@H]2C[C@@H]2C)=N1)OC
**A:** Condition not met

**Q:** Confirm if Inhibition of Colchicine Binding % Inhibition ± SD reported for the compound C=CC[C@@H](CC/C(C)=C/C=C/CC/C=C\[C@@H]1CSC([C@@H]2C[C@@H]2C)=N1)OC is 70% or above.
**A:** Condition met

**Q:** Evaluate CCC[C@@H](CC/C(C)=C/C=C/CC/C=C\[C@@H]1CSC([C@@H]2C[C@@H]2C)=N1)OC [C15,16-dihydro] : Inhibition of Colchicine Binding % Inhibition ± SD at minimum 70%?
**A:** Condition met

**Q:** Threshold query (Inhibition of Colchicine Binding % Inhibition ± SD >= 70%) on CCC[C@@H](CC/C(C)=C/C=C/CCCC[C@@H]1CSC([C@@H]2C[C@@H]2C)=N1)OC [C3,4,15,16 Tetrahydro, 3,4,15,16-tetrahydrocuracin A]
**A:** Condition not met

**Q:** Given the entry C=CCC1(CC/C(C)=C/C=C/CC/C=C\[C@@H]2CSC([C@@H]3C[C@@H]3C)=N2)OCCO1 , answer whether its Inhibition of Colchicine Binding % Inhibition ± SD meets or surpasses 70%.
**A:** Condition met
